Target Of Assay: Relaxin receptor 1 (Homo sapiens) (UniProt Q9HBX9)
Sequence (Q9HBX9 whole entry, looked up): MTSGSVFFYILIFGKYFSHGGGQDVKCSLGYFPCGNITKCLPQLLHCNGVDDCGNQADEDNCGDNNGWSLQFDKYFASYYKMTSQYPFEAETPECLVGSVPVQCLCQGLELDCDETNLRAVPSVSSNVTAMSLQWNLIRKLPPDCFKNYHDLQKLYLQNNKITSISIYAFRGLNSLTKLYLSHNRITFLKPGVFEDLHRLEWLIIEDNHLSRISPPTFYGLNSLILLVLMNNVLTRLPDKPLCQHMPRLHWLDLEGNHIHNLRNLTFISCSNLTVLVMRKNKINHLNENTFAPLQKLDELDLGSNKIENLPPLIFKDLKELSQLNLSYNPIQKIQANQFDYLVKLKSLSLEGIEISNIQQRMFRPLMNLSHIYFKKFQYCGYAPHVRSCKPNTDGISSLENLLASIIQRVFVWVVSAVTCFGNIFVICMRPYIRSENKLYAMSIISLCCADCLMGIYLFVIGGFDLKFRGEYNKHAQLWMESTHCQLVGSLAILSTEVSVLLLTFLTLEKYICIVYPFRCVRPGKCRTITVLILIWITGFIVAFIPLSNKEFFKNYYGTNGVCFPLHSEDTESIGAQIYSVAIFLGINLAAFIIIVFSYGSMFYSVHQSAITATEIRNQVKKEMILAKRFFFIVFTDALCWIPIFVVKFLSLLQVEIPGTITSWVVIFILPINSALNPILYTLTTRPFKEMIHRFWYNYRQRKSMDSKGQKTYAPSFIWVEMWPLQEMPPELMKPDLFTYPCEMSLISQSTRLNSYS
Test Description: qHTS Assay for Agonists of the Relaxin Receptor RXFP1: THP1 Hit Validation; also: nearly all actives have a fitted effect of over 60% in size
Conditions Used: THP1-RXFP1 cells, cAMP TR-FRET, 30 min; series mostly up to 115 µM
Results filed as inconclusive are left out. The source made the active and inactive calls. Calls follow the shape of the dose curve; as a rule, active = well fitted activation curve with a large enough effect; inconclusive = small, poorly fitted or top-dose-only effect; inactive = no such curve, though single readings can be large or run the other way.
Possible outcomes: active, inactive

>>> print(df.to_string())
                        structure_as_smiles     group
0  CN(C)CCCn1c(SCC(=O)Nc2nc(-c3cccc(Br)c3)cs2)nc2ccccc2c1=O  inactive
1  CCc1cc2c(=O)nc3n(c2s1)Cc1ccccc1/C3=C(/O)c1cccc([N+](=O)[O-])c1    active
2  CCCN(CCC)S(=O)(=O)c1cc(CN2C(=O)c3cccnc3C2=O)ccc1OC    active
3  CCOC(=O)c1sc(=NC(=O)c2ccc(S(=O)(=O)N(C)c3ccccc3)cc2)n(C)c1C    active
4        COc1ccc(S(=O)(=O)Nc2ccccn2)c(C)c1C  inactive
5  CC1(C)O[C@@H]2[C@H](O1)[C@@H](COS(=O)(=O)O)O[C@H]2n1cnc2c(N)ncnc21    active
6  CC(C)n1c(SCC(=O)N2CCN(C(=O)c3ccco3)CC2)nc2c1c(=O)n(C)c(=O)n2C    active
7               S=c1nc[nH]c2c1[nH]c1ccccc12    active
